- Test system: Veronica persica
- test: Pre-emergence herbicidal action, VERPE
- Assay type: in vivo
- runParameters: dosage 320 g/ha
The entries below come with measured herbicidal action VERPE values attached.

{"compound": "CCCn1nnnc1NC(=O)c1ccc(C)c(CSC)c1Cl [Example 3-287]", "herbicidal action VERPE [%]": 90}
{"compound": "CCCn1nnnc1NC(=O)c1ccc(C(F)F)c(C[S+](C)[O-])c1C (stereo not drawn) [Example 3-108]", "herbicidal action VERPE [%]": 90}
{"compound": "COc1c(C(=O)Nc2nnnn2C)ccc(Cl)c1C[S+](C)[O-] (stereo not drawn) [Example 1-571]", "herbicidal action VERPE [%]": 80}

====

- Test system: Veronica persica
- test: Pre-emergence herbicidal action, VERPE
- Assay type: in vivo
- runParameters: dosage 320 g/ha

{"compoundSmiles": "CCCn1nnnc1NC(=O)c1ccc(C(F)F)c(CS(C)(=O)=O)c1C", "testSystem": "Veronica persica", "herbicidal action VERPE (%)": 90}
{"compoundSmiles": "Cc1c(C(=O)Nc2nnnn2C)ccc(S(C)(=O)=O)c1CS(C)(=O)=O", "testSystem": "Veronica persica", "herbicidal action VERPE (%)": 90}
{"compoundSmiles": "COc1c(C(=O)Nc2nnnn2C)ccc(C(F)(F)F)c1CS(C)(=O)=O", "testSystem": "Veronica persica", "herbicidal action VERPE (%)": 100}
{"compoundSmiles": "CCCn1nnnc1NC(=O)c1ccc(C(F)(F)F)c(CSC)c1SC", "testSystem": "Veronica persica", "herbicidal action VERPE (%)": 100}
{"compoundSmiles": "CCCn1nnnc1NC(=O)c1ccc(C(F)(F)F)c(CS(=O)(=O)CC)c1Cl", "testSystem": "Veronica persica", "herbicidal action VERPE (%)": 100}
{"compoundSmiles": "CSCc1c(S(C)(=O)=O)ccc(C(=O)Nc2nnnn2C)c1Cl", "testSystem": "Veronica persica", "herbicidal action VERPE (%)": 90}
{"compoundSmiles": "CCSCc1c(C(F)(F)F)ccc(C(=O)Nc2nnnn2CC)c1C", "testSystem": "Veronica persica", "herbicidal action VERPE (%)": 100}
{"compoundSmiles": "CCCn1nnnc1NC(=O)c1ccc(C(F)(F)F)c(CSCC)c1C", "testSystem": "Veronica persica", "herbicidal action VERPE (%)": 100}
{"compoundSmiles": "CCn1nnnc1NC(=O)c1ccc(S(C)(=O)=O)c(CS(C)(=O)=O)c1C", "testSystem": "Veronica persica", "herbicidal action VERPE (%)": 100}

====

- Test system: Hordeum murinum
- test: Post-emergence herbicidal action, HORMU
- Assay type: in vivo
- Parameters: key: % herbicidal action: 100 = plants died, 0 = like control
- runParameters: post-emergence, dosage 80 g/ha

{"compound": "CSc1c(C(=O)Nc2nnnn2C)ccc(C(F)(F)F)c1C[S+](C)[O-] (stereo not shown) [Example 1-162]", "herbicidal action HORMU": "90%"}
{"compound": "CCCn1nnnc1NC(=O)c1ccc(C(F)(F)F)c(CSCC2CC2)c1Cl [Example 3-314]", "herbicidal action HORMU": "90%"}
{"compound": "CCn1nnnc1NC(=O)c1ccc(C(F)(F)F)c(CSCCOC)c1Cl [Example 2-305]", "herbicidal action HORMU": "100%"}
{"compound": "Cn1nnnc1NC(=O)c1ccc(C(F)(F)F)c(C[S+]([O-])C2CC2)c1Cl (racemic) [Example 1-303]", "herbicidal action HORMU": "100%"}

====

- Tested on: Setaria viridis
- test: Post-emergence herbicidal action, SETVI
- Type: in vivo
- Parameters: key: % herbicidal action vs untreated; 100 = plants died, 0 = like control
- runParameters: Dosage 80 g/ha
- Method: [table] 2. […] After the test plants have been left to stand in the greenhouse under optimal growth conditions for about 3 weeks, the action of the preparations is assessed visually in comparison to untreated controls (herbicidal action in percent (%): 100% activity=the plants have died, 0% activity=like control plants). […]
The entries below come with measured herbicidal action SETVI values attached.
assayMetric: herbicidal action SETVI

{"compoundSmiles": "Cn1nnnc1NC(=O)c1ccc(C(F)(F)F)c(CS(=O)(=O)CC2CC2)c1Cl", "numericValue": 90}
{"compoundSmiles": "CCn1nnnc1NC(=O)c1ccc(C(F)(F)F)c(CS(C)(=O)=O)c1OC", "numericValue": 100}
{"compoundSmiles": "CSCc1c(C(F)F)ccc(C(=O)Nc2nnnn2C)c1C", "numericValue": 90}
{"compoundSmiles": "COc1c(C(=O)Nc2nnnn2C)ccc(C(F)(F)F)c1CSC", "numericValue": 100}

These measurements were taken from patent US12492173B2.
